These data points were gathered from ChEMBL document CHEMBL1154192.

System: Mast cell
test.protocol: Inhibition of compound 48/80-induced histamine release in Wistar rat peritoneal mast cell at 20 uM treated 10 mins before compound 48/80 challenge
Type: functional
Item-by-item account of inhibition at 20 µM
measurement.label: inhibition at 20 µM (%)

compound="CCCC1(C2=CCc3ccccc32)Cc2ccccc2C1O (stereo not drawn)" result=-26
compound="O=C(O)c1cc(=O)c2c(OCC(O)COc3cccc4oc(C(=O)O)cc(=O)c34)cccc2o1 [CROMOLYN SODIUM]" result=9.1
compound="C=CCC1(C2=CCc3ccccc32)Cc2ccccc2C1O (stereo not drawn)" result=-35.5
compound="COC(=O)c1ccc(CC2(C3=CCc4ccccc43)Cc3ccccc3C2=O)cc1 (stereo not drawn)" result=-27.8
compound="CC1(C2=CCc3ccccc32)Cc2ccccc2C1=O (stereo not drawn)" result=15.6
compound="CCCC1(C2=CCc3ccccc32)Cc2ccccc2C1=O (stereo not drawn)" result=41.2
compound="CCC1(C2=CCc3ccccc32)Cc2ccccc2C1=O (stereo not drawn)" result=19.4
compound="CCCCCC1(C2=CCc3ccccc32)Cc2ccccc2C1=O (stereo not drawn)" result=-3.2
compound="CC/C=C/CC1(C2=CCc3ccccc32)Cc2ccccc2C1O (stereo not drawn)" result=49.7
compound="COC(=O)CC1(C2=CCc3ccccc32)Cc2ccccc2C1=O (stereo not drawn)" result=21.9
compound="CC/C=C/CC1(C2=CCc3ccccc32)Cc2ccccc2C1=O (stereo not drawn)" result=32.5
compound="O=C(O)CC1(C2=CCc3ccccc32)Cc2ccccc2C1=O (stereo not drawn)" result=10.3
compound="O=C1c2ccccc2CC1(Cc1ccccc1)C1=CCc2ccccc21 (stereo not drawn)" result=24.7
